Species: Rattus norvegicus
Assay: Inhibition of rat recombinant geranylgeranyltransferase type I expressed in Escherichia coli assessed as residual enzyme activity for geranylgeranylation of K-Ras4B at 50 uM incubated for 30 mins in presence of [3H]GGPP by scintillation counting assay relative to control
Recorded endpoint: Activity (%)

| Compound structure | Observed |
| --- | --- |
| Cc1ccc(S(=O)(=O)N2[C@@H](c3ccc(Cl)cc3)C(C(=O)O)=CC[C@H]2c2cccc(Br)c2)cc1 | 68.1 |

A = C=CCS[C@@H]1C[C@@H](c2ccc(OCC)cc2)N(S(=O)(=O)c2ccc(C)cc2)C[C@H]1C(=O)O
B = COc1ccc(S[C@H]2[C@@H](C(=O)O)[C@H](c3ccc(Cl)cc3)N(S(=O)(=O)c3ccc(Cl)cc3)[C@@H]2C(C)C)cc1
Endpoint returns the identifier whose Activity is numerically larger, either A or B . Kindly state the label of the option you pick. A
(A: 96.7%, B: 48.7%)

* * *

Species on record: Rattus norvegicus
Test: Inhibition of rat recombinant geranylgeranyltransferase type I expressed in Escherichia coli assessed as residual enzyme activity for geranylgeranylation of K-Ras4B at 50 uM incubated for 30 mins in presence of [3H]GGPP by scintillation counting assay relative to control
Recorded endpoint: Activity (%)

| Compound structure | Recorded endpoint | Observed |
| --- | --- | --- |
| COc1ccc([C@@H]2C[C@@H](SCc3ccc(C(C)(C)C)cc3)[C@H](C(=O)O)CN2S(=O)(=O)c2ccccc2)cc1 | Activity | 53 |

A = CCCS[C@@H]1C[C@@H](c2cc(OC)c(OC)c(OC)c2)N(S(=O)(=O)c2ccc(C)cc2)C[C@H]1C(=O)O
B = COc1ccc([C@H]2C(C(=O)O)=C[C@@H](C(C)(C)C)N2S(=O)(=O)c2ccc(C)cc2)cc1OC
Activity comparison. Which is larger, A or B ? Please identify the chosen entry by its label. A

P = Cc1ccc(S(=O)(=O)N2C[C@@H](C(=O)O)[C@H](SCC(C)C)C[C@H]2c2ccccc2F)cc1
Q = CS(=O)(=O)N1[C@@H](c2cccc(F)c2)C(C(=O)O)=CC[C@H]1c1ccccc1
Between item P and item Q , which reported Activity is smaller? Could you answer with the label of the item you picked? P

a = COc1ccc([C@@H]2CC=C(C(=O)O)[C@H](c3ccc(C)cc3)N2S(=O)(=O)c2ccc(Cl)cc2)cc1
b = CCCCS[C@@H]1C[C@@H](c2ccc(C)cc2)N(S(C)(=O)=O)C[C@H]1C(=O)O
Given a and b , report the one with the higher recorded Activity. Answer by quoting the chosen item's label. b

P = COc1ccc([C@@H]2C[C@@H](SCC(C)C)[C@H](C(=O)O)CN2S(=O)(=O)c2ccc(Cl)cc2)cc1
Q = Cc1ccc(S(=O)(=O)N2C[C@@H](C(=O)O)[C@H](Sc3ccc(Cl)cc3)C[C@H]2c2ccc(Cl)cc2)cc1
Parameter metric = Activity. Return the lower-valued option from P and Q . Bench note: the answer is the label of the chosen record. Q
(Q: 52.1%, P: 75.6%)

1 = CC(C)(C)c1ccc([C@H]2C(C(=O)O)=CC[C@@H](c3ccccc3)N2S(C)(=O)=O)cc1
2 = Cc1ccc([C@@H]2C[C@@H](SCc3ccc(Cl)cc3)[C@H](C(=O)O)CN2S(=O)(=O)c2ccc(C)cc2)cc1
Pick one: 1 or 2 . Which has the bigger Activity number? Let me know the label of the one you choose. 1

* * *

System: MIA PaCa-2
Assay: Antiproliferative activity against human MIAPaCa2 cells assessed as inhibition of cell proliferation incubated for 72 hrs by CCK8 assay
Type: functional, cell-based
Conditions: MIA PaCa-2, 72 h
Recorded endpoint: GI50 (µM)

a = Cc1ccccc1S(=O)(=O)N1[C@@H](c2cccc(Cl)c2)C(C(=O)N[C@@H](CC(C)C)C(N)=O)=CC[C@H]1c1ccc(Cl)cc1
b = Cc1ccccc1S(=O)(=O)N1[C@@H](c2ccc(Cl)cc2)C(C(=O)N[C@@H](Cc2ccccc2)C(=O)O)=C[C@H]1C(C)(C)C
I need your help: which of the pair a , b has higher GI50? State the label of the item chosen. a

* * *

Species on record: Rattus norvegicus
Experiment: Inhibition of rat recombinant geranylgeranyltransferase type I expressed in Escherichia coli assessed as residual enzyme activity for geranylgeranylation of K-Ras4B at 50 uM incubated for 30 mins in presence of [3H]GGPP by scintillation counting assay relative to control
Recorded endpoint: Activity (%)

Illustrative cases are given below, each with its answer.
| Compound structure | Observed |
| --- | --- |
| CCc1ccc([C@@H]2CC=C(C(=O)O)[C@H](c3cccc(Cl)c3)N2S(=O)(=O)c2ccc(C)cc2)cc1 | 73.6 |
| Cc1ccc(S[C@@H]2C[C@@H](c3ccc4c(c3)OCO4)N(S(=O)(=O)c3ccc(C)cc3)C[C@H]2C(=O)O)cc1 | 77.8 |
| CC(=O)C1=CC[C@@H](c2ccc(C(C)C)cc2)N(S(=O)(=O)c2ccc(C)cc2)C1 | 105 |
| Cc1ccc(S[C@@H]2C[C@@H](c3ccc(C)cc3)N(S(=O)(=O)c3ccccc3)C[C@H]2C(=O)O)cc1 | 91.3 |
| Cc1ccc([C@H]2C(C(=O)O)=CC[C@@H](c3cccc(Cl)c3)N2S(=O)(=O)c2ccc(C)cc2)cc1 | 66.1 |

A = CCCS[C@@H]1C[C@@H](c2ccccc2F)N(S(=O)(=O)c2ccc(C)cc2)C[C@H]1C(=O)O
B = COc1ccc([C@@H]2C[C@@H](SCc3ccccc3)[C@H](C(=O)O)CN2S(=O)(=O)c2ccc(C)cc2)cc1OC
Between the entries labelled A and B , which has a larger Activity value on record? Identify your selection by its label. A
(A: 91.1%, B: 54.5%)

* * *

Species: Rattus norvegicus
Assay: Inhibition of rat recombinant geranylgeranyltransferase type I expressed in Escherichia coli assessed as residual enzyme activity for geranylgeranylation of K-Ras4B at 50 uM incubated for 30 mins in presence of [3H]GGPP by scintillation counting assay relative to control
Recorded endpoint: Activity (%)

# annotated cases, reported Activity shown
| Compound structure | Activity (%) |
| --- | --- |
| Cc1ccc([C@H]2C(C(=O)O)=CC[C@@H](c3cccs3)N2S(=O)(=O)c2ccc(C)cc2)cc1 | 73.4 |
| CC(=O)C1=CC[C@@H](c2cccc(C)c2)N(S(=O)(=O)c2ccc(C)cc2)C1 | 102 |
| Cc1ccc([C@H]2C(C(=O)O)=CC[C@@H](c3ccc(Cl)cc3)N2S(=O)(=O)c2ccc(C)cc2)cc1 | 60.7 |
| CCc1ccc([C@@H]2C[C@@H](SCC(C)C)[C@H](C(=O)O)CN2S(=O)(=O)c2ccc(C)cc2)cc1 | 68.5 |
| Cc1ccc(S(=O)(=O)N2C[C@@H](C(=O)O)[C@H](Sc3ccc(Cl)cc3)C[C@H]2c2cccc(Cl)c2)cc1 | 111 |
| Cc1ccc([C@@H]2CC=C(C(=O)O)[C@H](c3ccc(C(C)(C)C)cc3)N2S(C)(=O)=O)cc1 | 78.2 |
| Cc1ccc([C@@H]2C[C@@H](SCc3ccc(C(C)(C)C)cc3)[C@H](C(=O)O)CN2S(=O)(=O)c2ccccc2)cc1 | 68.1 |
| Cc1ccc(S(=O)(=O)N2[C@@H](c3cccc(F)c3)C(C(=O)O)=CC[C@H]2c2ccccc2F)cc1 | 75 |

a = Cc1ccc(S(=O)(=O)N2[C@@H](c3cccc(Br)c3)C(C(=O)O)=CC[C@H]2c2ccc(Cl)cc2)cc1
b = Cc1ccc([C@H]2C(C(=O)O)=CC[C@@H](c3ccc(C)cc3)N2S(=O)(=O)c2ccccc2C)cc1
Identify the entry with the larger Activity. Options: a and b Answer by stating the label of the chosen item. b
(b: 88.3%, a: 56.6%)

* * *

GI50 reference
Test system: Capan-2
Test: Antiproliferative activity against human Capan2 cells assessed as inhibition of cell proliferation incubated for 72 hrs by CCK8 assay
Type: functional, cell-based
Conditions: Capan-2, 72 h
A number alone suffices; assume µM.

Field GI50 (Capan-2), entry Cc1ccccc1S(=O)(=O)N1[C@@H](c2cccc(Cl)c2)C(C(=O)N[C@@H](CC(C)C)C(N)=O)=CC[C@H]1c1ccc(Cl)cc1 : 14

# Cc1ccccc1S(=O)(=O)N1[C@@H](c2ccc(Cl)cc2)C(C(=O)N[C@@H](Cc2ccccc2)C(=O)O)=C[C@H]1C(C)(C)C with Capan-2: GI50 is 11.5

* * *

Species: Rattus norvegicus
Assay: Inhibition of rat recombinant geranylgeranyltransferase type I expressed in Escherichia coli assessed as residual enzyme activity for geranylgeranylation of K-Ras4B at 50 uM incubated for 30 mins in presence of [3H]GGPP by scintillation counting assay relative to control
Recorded endpoint: Activity (%)

Would you please look over these solved cases?
| Compound structure | Activity (%) |
| --- | --- |
| Cc1ccc([C@@H]2CC=C(C(=O)O)[C@H](c3ccc(Br)cc3)N2S(=O)(=O)c2ccc(Cl)cc2)cc1 | 69.5 |
| Cc1ccc(S(=O)(=O)N2[C@@H](c3ccc(F)cc3)C(C(=O)O)=CC[C@H]2c2ccc3c(c2)OCO3)cc1 | 68.2 |
| CCCCCS[C@@H]1C[C@@H](c2ccc(OC)cc2)N(S(=O)(=O)c2ccc(Cl)cc2)C[C@H]1C(=O)O | 70.9 |

a = COc1ccc([C@@H]2CC=C(C(=O)O)[C@H](c3ccc(Cl)cc3)N2S(=O)(=O)c2ccc(C)cc2)cc1OC
b = Cc1ccc(S(=O)(=O)N2C[C@@H](C(=O)O)[C@H](SCCC(C)C)C[C@H]2c2ccc(Cl)cc2)cc1
From the recorded data, which exceeds the other in Activity: a or b ? Record your answer as the label of the chosen record. a

Data credit: ChEMBL document CHEMBL4421722
